test system: xxV90I; assay: D-D4FC susceptibility of recombinant HIV-1 in MT-2 cells; type: cell-based; conditions: Human immunodeficiency virus 1, MT2, recombinant xxV90I
parameter: EC50 (µM)
API: value field is a number in µM; no unit string.

Entry Nc1nc(=O)n([C@H]2C=C[C@@H](CO)O2)cc1F [D-D4FC] , EC50 reported as 0.25

---

test system: xxK65R; test: D-D4FC susceptibility of recombinant HIV-1 in MT-2 cells; format: cell-based; details: Human immunodeficiency virus 1, MT2, recombinant xxK65R
parameter: EC50 (nM)
The reply should contain only the number, in nM.

Simply: Nc1nc(=O)n([C@H]2C=C[C@@H](CO)O2)cc1F , xxK65R, EC50 = 1240

The measured values listed here are drawn from patent EP1143976B9.
